B1: CarDNt, the 179-residue N-terminal domain of Myxococcus xanthus CarD (in pKT25) [Myxococcus xanthus] / Mxβ_(19–148), M. xanthus RNA polymerase β subunit fragment spanning residues 19 to 148 (in pUT18C) [Myxococcus xanthus] (parent complex)
chain 1: MPEGSASLQLAVGDRVVYPNQGVCRVSAIDVKEVAGQKLTFVTMRREEDGAVVMVPEGKVLAIGVRKVASAEDVEAIFTFLRSDSDKADLDWKQRARTNLDRMTQGGIMGLAEVVKGLQVLSELRPLPTKERELYDNARHLLVTEVAAALGTAEVNAEDAIDIVLFPPGRERPKRTAAE
chain 2: AKIIDIPNLINIQKQSYEKFLQADIAADKREDLGLQGVFKSVFPIRDFNETSSLEFVSYHLERPKYDVDECHQRGMTYSAPIKVVVRLVVWDKDEETGAQSIRDVKEQEVYFGEIPLMTQNGTFIINGTE

Variants of: B1
protocol-details: BACTH analysis (β-Gal activity); Mxβ19–148 mutants in pUT18C; CarDNt in pKT25; mean and standard error of three independent experiments; parent: 2.6e+03; read off a plot
Recorded response for the following variants

Observe how each entry below is paired with its result.
{"columns": ["mutation-descriptor", "response"],
 "data": [
  ["chain 2 E107A", "~90"],
  ["chain 2 V105A", "~610"],
  ["chain 2 D104A", "~1800"]
]}

Note: attention shifts to another entry.
Exercise: Let me know recorded response for chain 2 K106A , thanks.
Key: ~2100

These measurements were taken from paper PMC4374960.
